System: HSV-2
EXPERIMENT_SUMMARY: Plaque reduction assay, HSV-2 clinical isolates on Vero cells
Type: cell-based
EXPERIMENTAL_SETUP: Human alphaherpesvirus 2, Vero, isolate HPG028, HSV-2 TK 98stop or A94fs (276delG, 278delG, 279delG, or 280delG); read-out: Drug susceptibility Foscarnet (FOS)
VALUE_KIND: IC50

Input: Give the reported IC50 for `O=C(O)P(=O)(O)O` (system: HSV-2).
Output: < 250 µM

###

Tested on: HSV-1
EXPERIMENT_SUMMARY: Plaque reduction assay, HSV-1 clinical isolates on Vero cells
Type: cell-based
EXPERIMENTAL_SETUP: Human alphaherpesvirus 1, Vero, isolate HPG041, HSV-1 pol S911N (2732G>A); also pol A1169T; read-out: Drug susceptibility Penciclovir (PCV)
pIC50: −log10 of the molar value.
VALUE_KIND: pIC50

Input: Give the reported pIC50 for `Nc1nc2c(ncn2CCC(CO)CO)c(=O)[nH]1` (system: HSV-1).
Output: > 5.00

###

Recorded IC50 for the following compounds
Tested on: HSV-1
EXPERIMENT_SUMMARY: Plaque reduction assay, HSV-1 clinical isolates on Vero cells
Assay type: cell-based
EXPERIMENTAL_SETUP: Human alphaherpesvirus 1, Vero, isolate HPG026, HSV-1 pol E850Q (2548G>C); also TK R216C, pol A1169T; read-out: Drug susceptibility (IC50 value)
Report the figure in µM without appending any unit label.

O=C(O)P(=O)(O)O [Foscarnet, foscarnet]    68.3
Nc1nc2c(ncn2COCCO)c(=O)[nH]1 [Aciclovir, acyclovir]    18.1

Input: Given the entry Nc1nc2c(ncn2CCC(CO)CO)c(=O)[nH]1 [Penciclovir, penciclovir] , report its measured IC50.
Output: 35

###

Recorded IC50 for the following compounds
System: HSV-1
EXPERIMENT_SUMMARY: Plaque reduction assay, HSV-1 clinical isolates on Vero cells
Format: cell-based
EXPERIMENTAL_SETUP: Human alphaherpesvirus 1, Vero, isolate HPG051, HSV-1 pol D83A (248A>C); also TK R176stop; read-out: Drug susceptibility (IC50 value)
Report the figure in µM without appending any unit label.

Nc1nc2c(ncn2COCCO)c(=O)[nH]1    29.2
O=C(O)P(=O)(O)O    82.6

In the following, a different compound is considered.
Input: Given the entry `Nc1ccn(C[C@@H](CO)OCP(=O)(O)O)c(=O)n1` , report its measured IC50.
Output: 4.94

###

System: HSV-1
EXPERIMENT_SUMMARY: Plaque reduction assay, HSV-1 clinical isolates on Vero cells
Format: cell-based
EXPERIMENTAL_SETUP: Human alphaherpesvirus 1, Vero, isolate HPG043, HSV-1 TK 183* (437_438insA); read-out: Drug susceptibility Foscarnet (FOS)
pIC50: −log10 of the molar value.
VALUE_KIND: pIC50

Input: Given the entry `O=C(O)P(=O)(O)O` , report its measured pIC50.
Output: > 3.60

###

Test system: HSV-2
EXPERIMENT_SUMMARY: Plaque reduction assay, HSV-2 clinical isolates on Vero cells
Format: cell-based
EXPERIMENTAL_SETUP: Human alphaherpesvirus 2, Vero, read-out: Drug susceptibility Foscarnet (FOS), isolate HPG056, HSV-2 pol M447L (1339A>C)
VALUE_KIND: IC50

Input: Given the entry `O=C(O)P(=O)(O)O` , report its measured IC50.
Output: < 250 µM

###

Test system: HSV-1
EXPERIMENT_SUMMARY: Plaque reduction assay, HSV-1 clinical isolates on Vero cells
Assay type: cell-based
EXPERIMENTAL_SETUP: Human alphaherpesvirus 1, Vero, isolate HPG020, HSV-1 pol S911N (2732G>A); also pol A1169T; read-out: Drug susceptibility Cidofovir (CDV)
VALUE_KIND: IC50

Input: Given the entry Nc1ccn(C[C@@H](CO)OCP(=O)(O)O)c(=O)n1 [Cidofovir, cidofovir] , report its measured IC50.
Output: < 24 µM

###

Tested on: HSV-1
EXPERIMENT_SUMMARY: Plaque reduction assay, HSV-1 clinical isolates on Vero cells
Type: cell-based
EXPERIMENTAL_SETUP: Human alphaherpesvirus 1, Vero, read-out: Drug susceptibility Aciclovir (ACV), isolate HPG021, HSV-1 pol T839A (2515A>G); also TK deletion (G) nt 430-436
pIC50: −log10 of the molar value.
VALUE_KIND: pIC50

Input: Given the entry `Nc1nc2c(ncn2COCCO)c(=O)[nH]1` , report its measured pIC50.
Output: < 4.40
